Target: Aβ42 oligomers (Homo sapiens)
Sequence (P05067 672-713 limits assumed): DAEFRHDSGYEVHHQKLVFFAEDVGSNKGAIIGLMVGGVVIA
Assay Endpoint: pKd
Scale note: pKd = -log10(concentration in M).

The reported pKd value, Aβ42 oligomers (Homo sapiens), for Cc1nn(-c2ccc(OCCCF)cc2)cc1C=CC1=CC(C2CCC2)=[O+][B-](F)(F)O1 reads 6.11
